Record form. Attribute: protein stability index. Fill in for each entry.
B1: PTPRD (parent)
chain: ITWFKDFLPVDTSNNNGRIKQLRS

Variants of: B1
ASSAY REMARKS: protein stability index of a GFP-peptide fusion (GPS, HEK-293T) (PSI 1-6); higher = more stable;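 also: lentivirally expressed fusions sorted by FACS into six bins by GFP to DsRed ratio, PSI derived from sequencing read proportions per bin multiplied by bin number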
APPLIED CONDITIONS: c terminus: a fixed tail appended
Number only, no unit.

// recorded protein stability index for F7A : 2.45

// recorded protein stability index for N14I : 1.85

// recorded protein stability index for T12D : 1.99

// recorded protein stability index for V10C : 2.05

// recorded protein stability index for K20E : 1.74

// recorded protein stability index for F4S : 1.57

// recorded protein stability index for N14M : 1.79

// recorded protein stability index for P9H : 1.45

// recorded protein stability index for L22V : 1.62

// recorded protein stability index for R23H : 1.74

// recorded protein stability index for L22N : 2.01

// recorded protein stability index for D11T : 1.61

// recorded protein stability index for S13T : 1.95

// recorded protein stability index for G17V : 1.31

// recorded protein stability index for K20A : 1.66

// recorded protein stability index for D6Q : 1.4

// recorded protein stability index for G17M : 1.34

// recorded protein stability index for R18C : 2.83

// recorded protein stability index for W3E : 4.07

// recorded protein stability index for N16I : 2.32

// recorded protein stability index for N15P : 1.82

// recorded protein stability index for D11N : 2.01
